Value source: patent US9452988B2

- test: CD-1 mice plasma pharmacokinetics, bendamustine C14 ester albumin nanoparticle i.v.
- Type: in vivo
- runConditions: mouse, iv, 80 mg/kg, 80 mg-eq/kg, Mean n = 3, read-out: t1/2 of C14 Ester in plasma (converted)
property: half-life (h)
Answers are plain numbers, in h.

// half-life lookup, key: `CCCCCCCCCCCCCCOC(=O)CCCc1nc2cc(N(CCCl)CCCl)ccc2n1C` 1.09

----------
- test: Tumor and plasma levels, H460 tumor efficacy PK group
- runConditions: nu/nu, mouse, in vivo, 37.5 mg/kg, BM1 level in tumor at 1 hour, Solution (TREANDA)
- Description: The formulations were administrated as 100 μL dose volume through tail vein injection within 30 minutes after compounds were formulated. All the mice were weighed and tumors measured twice weekly. […] A portion of the tumor bearing mice were dosed as a satellite PK group. […] Samples were analyzed for bendamustine HCl and the corresponding ester analogue as described in the LC-MS protocol section. […]
property: concentration at 1 h
Write down the value, and be sure its unit follows.

// concentration at 1 h lookup, key: Cn1c(CCCC(=O)O)nc2cc(N(CCCl)CCCl)ccc21 [Bendamustine] 1470 ng/mL

----------
- test: Tumor and plasma levels, H460 tumor efficacy PK group
- runConditions: nu/nu, mouse, in vivo, 80 mg/kg, Ester level in plasma at 1 hour, HSA nanoparticle
property: concentration at 1 h

// concentration at 1 h lookup, key: `CCCCCCCCCCCCCCOC(=O)CCCc1nc2cc(N(CCCl)CCCl)ccc2n1C` 3650 ng/mL

----------
- test: Rat plasma pharmacokinetics, solution formulations of C16, cyclohexyl and 5-decanyl esters, 3 mg-eq/kg i.v.
- Type: in vivo
- runConditions: plasma, iv, 3 mg/kg, solution formulation 3 mg-eq/kg i.v., Mean n = 3, read-out: CL of Ester
property: clearance (mL/min/kg)
Give bare numbers, in mL/min/kg.

// clearance lookup, key: CCCCCCCCCCCCCCCCOC(=O)CCCc1nc2cc(N(CCCl)CCCl)ccc2n1C [C16 bendamustine ester] 41

----------
- test: CD-1 mice plasma pharmacokinetics, bendamustine C14 ester albumin nanoparticle i.v.
- Assay type: in vivo
- runConditions: mouse, iv, 80 mg/kg, 80 mg-eq/kg, Mean n = 3, read-out: AUC0-6 of C14 Ester in plasma
property: AUC(0-t) (ng·h/mL)
Answers are plain numbers, in ng·h/mL.

// AUC(0-t) lookup, key: `CCCCCCCCCCCCCCOC(=O)CCCc1nc2cc(N(CCCl)CCCl)ccc2n1C` 46300

----------
- test: CD-1 mice plasma pharmacokinetics, bendamustine C14 ester albumin nanoparticle i.v.
- Assay type: in vivo
- runConditions: mouse, iv, 55 mg/kg, 55 mg-eq/kg, Mean n = 3, read-out: CL of C14 Ester
property: clearance
Write down the value, and be sure its unit follows.

// clearance lookup, key: `CCCCCCCCCCCCCCOC(=O)CCCc1nc2cc(N(CCCl)CCCl)ccc2n1C` 29 mL/min/kg

----------
- test: CD-1 mice plasma pharmacokinetics, bendamustine C14 ester albumin nanoparticle i.v.
- Type: in vivo
- runConditions: mouse, iv, 55 mg/kg, 55 mg-eq/kg, Mean n = 3, read-out: t1/2 of C14 Ester in plasma (converted)
- Method: Another embodiment of the invention, bendamustine C14 ester was formulated into a nanoparticle intraveneous formulation according to the methods described above and administered to CD-1 mice. The amount of bendamustine (BM1) and bendamustine C14 ester was determined in the mice plasma.
property: half-life (min)
Numbers only, in min.

// half-life lookup, key: CCCCCCCCCCCCCCOC(=O)CCCc1nc2cc(N(CCCl)CCCl)ccc2n1C [Bendamustine C14 Ester] 58.8

----------
- test: Tumor and plasma levels, H460 tumor efficacy PK group
- runConditions: nu/nu, mouse, in vivo, 80 mg/kg, Ester level in tumor at 1 hour, HSA nanoparticle
property: concentration at 1 h (ng/mL)
One number for each entry, in ng/mL.

// concentration at 1 h lookup, key: `CCCCCCCCCCCCCCOC(=O)CCCc1nc2cc(N(CCCl)CCCl)ccc2n1C` 4570

----------
- test: Tumor and plasma levels, H460 tumor efficacy PK group
- runConditions: nu/nu, mouse, in vivo, 37.5 mg/kg, BM1 level in plasma at 1 hour, Solution (TREANDA)
property: concentration at 1 h (ng/mL)
Numbers only, in ng/mL.

// concentration at 1 h lookup, key: `Cn1c(CCCC(=O)O)nc2cc(N(CCCl)CCCl)ccc21` 1550

----------
- test: Tumor and plasma levels, MDA-MB-231 tumor efficacy PK group
- runConditions: athymic nude, mouse, in vivo, 80 mg/kg, Ester level in plasma at 1 hour, HSA nanoparticle
property: concentration at 1 h (ng/mL)
Numbers only, in ng/mL.

// concentration at 1 h lookup, key: CCCCCCCCCCCCCCOC(=O)CCCc1nc2cc(N(CCCl)CCCl)ccc2n1C [Bendamustine C14 Ester] 5730

----------
- test: CD-1 mice plasma pharmacokinetics, bendamustine C14 ester albumin nanoparticle i.v.
- Type: in vivo
- runConditions: mouse, iv, 30 mg/kg, 30 mg-eq/kg, Mean n = 3
property: Vd
Write down the value, and be sure its unit follows.

// Vd lookup, key: CCCCCCCCCCCCCCOC(=O)CCCc1nc2cc(N(CCCl)CCCl)ccc2n1C [Bendamustine C14 Ester] 3.2 L/kg

----------
- test: Tumor and plasma levels, MDA-MB-231 tumor efficacy PK group
- runConditions: athymic nude, mouse, in vivo, 37.5 mg/kg, BM1 level in tumor at 1 hour, Solution
property: concentration at 1 h (ng/mL)
Answers are plain numbers, in ng/mL.

// concentration at 1 h lookup, key: `Cn1c(CCCC(=O)O)nc2cc(N(CCCl)CCCl)ccc21` 558

----------
- test: Rat plasma pharmacokinetics, solution formulations of C16, cyclohexyl and 5-decanyl esters, 3 mg-eq/kg i.v.
- Format: in vivo
- runConditions: plasma, iv, 3 mg/kg, solution formulation 3 mg-eq/kg i.v., Mean n = 3, read-out: t1/2 of Ester in plasma (converted)
property: half-life (min)
Numbers only, in min.

// half-life lookup, key: `CCCCCCCCCCCCCCCCOC(=O)CCCc1nc2cc(N(CCCl)CCCl)ccc2n1C` 16.8

----------
- test: CD-1 mice plasma pharmacokinetics, bendamustine C14 ester albumin nanoparticle i.v.
- Assay type: in vivo
- runConditions: mouse, iv, 80 mg/kg, 80 mg-eq/kg, Mean n = 3, read-out: AUC0-∞ of C14 Ester in plasma
property: AUC(0-inf) (ng·h/mL)
Give bare numbers, in ng·h/mL.

// AUC(0-inf) lookup, key: CCCCCCCCCCCCCCOC(=O)CCCc1nc2cc(N(CCCl)CCCl)ccc2n1C [Bendamustine C14 Ester] 46500

----------
- test: Tumor and plasma levels, H460 tumor efficacy PK group
- runConditions: nu/nu, mouse, in vivo, 80 mg/kg, Ester level in tumor at 1 hour, Solution
property: concentration at 1 h (ng/mL)
Answers are plain numbers, in ng/mL.

// concentration at 1 h lookup, key: CCCCCCCCCCCCCCOC(=O)CCCc1nc2cc(N(CCCl)CCCl)ccc2n1C [Bendamustine C14 Ester] 8570

----------
- test: Rat plasma pharmacokinetics, solution formulations of C16, cyclohexyl and 5-decanyl esters, 3 mg-eq/kg i.v.
- Type: in vivo
- runConditions: plasma, iv, 3 mg/kg, solution formulation 3 mg-eq/kg i.v., Mean n = 3, read-out: Vd of Ester
property: Vd
Write down the value, and be sure its unit follows.

// Vd lookup, key: CCCCCCCCCCCCCCCCOC(=O)CCCc1nc2cc(N(CCCl)CCCl)ccc2n1C [C16 bendamustine ester] 1 L/kg

----------
- test: Tumor and plasma levels, H460 tumor efficacy PK group
- runConditions: nu/nu, mouse, in vivo, 80 mg/kg, Ester level in plasma at 1 hour, Solution
property: concentration at 1 h (ng/mL)
Answers are plain numbers, in ng/mL.

// concentration at 1 h lookup, key: `CCCCCCCCCCCCCCOC(=O)CCCc1nc2cc(N(CCCl)CCCl)ccc2n1C` 32200

----------
- test: CD-1 mice plasma pharmacokinetics, bendamustine C14 ester albumin nanoparticle i.v.
- Format: in vivo
- runConditions: mouse, iv, 55 mg/kg, 55 mg-eq/kg, Mean n = 3
property: Vd (L/kg)
Answers are plain numbers, in L/kg.

// Vd lookup, key: CCCCCCCCCCCCCCOC(=O)CCCc1nc2cc(N(CCCl)CCCl)ccc2n1C [Bendamustine C14 Ester] 2.5

----------
- test: CD-1 mice plasma pharmacokinetics, bendamustine C14 ester albumin nanoparticle i.v.
- Format: in vivo
- runConditions: mouse, iv, 80 mg/kg, 80 mg-eq/kg, Mean n = 3, read-out: CL of C14 Ester
property: clearance (mL/min/kg)
Answers are plain numbers, in mL/min/kg.

// clearance lookup, key: CCCCCCCCCCCCCCOC(=O)CCCc1nc2cc(N(CCCl)CCCl)ccc2n1C [Bendamustine C14 Ester] 56
